Here the recorded Activity is given for each entry.
- Tested on: Candida albicans
- assay_method_text: Induction of apoptosis in Candida albicans ATCC 90028 assessed as early apoptotic cells at antifungal MIC90 after 24 hrs by Annexin V/propidium iodide staining based flow cytometry (reference value: 0%)
- Type: functional
Reply numerically in %, unit not repeated.

# example entries with known answers
1) Clc1ccccc1C(c1ccccc1)(c1ccccc1)n1ccnc1 [CLOTRIMAZOLE] : 0.6
2) Cn1cnnc1SCCc1nnc(SCC(=O)Nc2ccc([N+](=O)[O-])cc2)o1 : 0.4
3) CC(=O)N1CCN(c2ccc(OCC3COC(Cn4ccnc4)(c4ccc(Cl)cc4Cl)O3)cc2)CC1 (centres undefined) [KETOCONAZOLE] : 1.1

From here, focus on the item given below.
Can you look up Activity on Candida albicans for `Cn1cnnc1SCCc1nnc(SCC(=O)Nc2nc3ccc(F)cc3s2)o1` ?
0.1

====

Here the recorded Activity is given for each entry.
- Tested on: Pichia kudriavzevii
- assay_method_text: Induction of apoptosis in Candida krusei ATCC 6258 assessed as live cells at antifungal MIC90 after 24 hrs by Annexin V/propidium iodide staining based flow cytometry (reference value: 97.3%)
- Format: functional
Reply numerically in %, unit not repeated.

# example entries with known answers
1. Clc1ccccc1C(c1ccccc1)(c1ccccc1)n1ccnc1 : 32.6
2. Cn1cnnc1SCCc1nnc(SCC(=O)Nc2ccc([N+](=O)[O-])cc2)o1 : 70.5
3. Cn1cnnc1SCCc1nnc(SCC(=O)Nc2nc3ccc(F)cc3s2)o1 : 30.2

From here, focus on the item given below.
Which Activity value is on record for CC(=O)N1CCN(c2ccc(OCC3COC(Cn4ccnc4)(c4ccc(Cl)cc4Cl)O3)cc2)CC1 (centres undefined) ?
23.8

====

Here the recorded MIC90 is given for each entry.
- System: Candida albicans
- assay_method_text: Antifungal activity against Candida albicans ATCC 90028 by broth microdilution assay
- Type: functional
Reply numerically in µg/mL, unit not repeated.

# example entries with known answers
1. CC(=O)N1CCN(c2ccc(OCC3COC(Cn4ccnc4)(c4ccc(Cl)cc4Cl)O3)cc2)CC1 (configuration not stated) [KETOCONAZOLE] : 62.5
2. Cn1cnnc1SCCc1nnc(SCC(=O)Nc2nc3ccc(F)cc3s2)o1 : 62.5
3. Cn1cnnc1SCCc1nnc(SCC(=O)Nc2ccc([N+](=O)[O-])cc2)o1 : 62.5
4. Clc1ccccc1C(c1ccccc1)(c1ccccc1)n1ccnc1 [CLOTRIMAZOLE] : 31.2
5. Cn1cnnc1SCCc1nnc(SCC(=O)Nc2nc3ccc([N+](=O)[O-])cc3s2)o1 : 125
6. COc1ccc2nc(NC(=O)CSc3nnc(CCSc4nncn4C)o3)sc2c1 : 125
7. Cn1cnnc1SCCc1nnc(SCC(=O)Nc2nc3ccccc3s2)o1 : 125
8. COc1ccc(NC(=O)CSc2nnc(CCSc3nncn3C)o2)cc1 : 250

Which MIC90 value is on record for `Cn1cnnc1SCCc1nnc(SCC(=O)Nc2nc3ccc(Cl)cc3s2)o1` ?
125

Then what about the molecule `Cn1cnnc1SCCc1nnc(SCC(=O)Nc2ccc(F)cc2)o1` ?
250

Then what about the molecule `Cn1cnnc1SCCc1nnc(SCC(=O)Nc2ccc(Cl)cc2)o1` ?
250

Then what about the molecule `Cn1cnnc1SCCc1nnc(SCC(=O)Nc2ccccc2)o1` ?
250

====

- Test system: Nakaseomyces glabratus
- assay_method_text: Antifungal activity against Candida glabrata ATCC 90030 by broth microdilution assay
- Type: functional
property: MIC90

# example entries with known answers
1) Cn1cnnc1SCCc1nnc(SCC(=O)Nc2ccc([N+](=O)[O-])cc2)o1 : 62.5 µg/mL
2) Cn1cnnc1SCCc1nnc(SCC(=O)Nc2nc3ccccc3s2)o1 : 250 µg/mL
3) CC(=O)N1CCN(c2ccc(OCC3COC(Cn4ccnc4)(c4ccc(Cl)cc4Cl)O3)cc2)CC1 (configuration not stated) [KETOCONAZOLE] : 62.5 µg/mL

Which MIC90 value is on record for `Cn1cnnc1SCCc1nnc(SCC(=O)Nc2ccccc2)o1` ?
250 µg/mL

Then what about the compound `Cn1cnnc1SCCc1nnc(SCC(=O)Nc2ccc(Cl)cc2)o1` ?
250 µg/mL

Then what about the compound `COc1ccc2nc(NC(=O)CSc3nnc(CCSc4nncn4C)o3)sc2c1` ?
500 µg/mL

Then what about the compound `COc1ccc(NC(=O)CSc2nnc(CCSc3nncn3C)o2)cc1` ?
250 µg/mL

Then what about the compound Clc1ccccc1C(c1ccccc1)(c1ccccc1)n1ccnc1 [CLOTRIMAZOLE] ?
62.5 µg/mL
